Origin of measurements: the supplement of paper PMC4977894

System: Homo sapiens (human subject panel, olfactory perception)
PROCEDURE_TEXT: perceived odor intensity rating (rating 0-100); higher = stronger perceived smell
RECORDED_CONDITIONS: odor dilution in paraffin oil: 1/1,000
Param threshold (40) applies to perceived odor intensity rating; output MET when value >= threshold, NOT MET when value < threshold.

CC(=O)OC(C)C [isopropyl acetate] : NOT MET
O=Cc1ccc(O)cc1 [4-Hydroxybenzaldehyde] : NOT MET

Hi, just wondering whether c1ccc(CSSCc2ccccc2)cc1 [Benzyl disulfide] shows perceived odor intensity rating of 40 or higher. MET

Hi, just wondering whether CCC(C)CO (stereo unspecified) [2-Methyl-1-butanol] shows perceived odor intensity rating of 40 or higher. MET

Hi, just wondering whether CC12CCC(CC1=O)C2(C)C (stereo unspecified) [Camphor] shows perceived odor intensity rating of 40 or higher. MET

Hi, just wondering whether COc1cc(C=O)ccc1OC(C)=O [Vanillin Acetate] shows perceived odor intensity rating of 40 or higher. MET

Hi, just wondering whether "CC(=O)CCC=C(C)C" shows perceived odor intensity rating of 40 or higher. MET

Hi, just wondering whether CCOC(=O)CC(O)C(=O)OCC (stereo unspecified) [Diethyl malate] shows perceived odor intensity rating of 40 or higher. NOT MET

Hi, just wondering whether "CCCc1ccc(O)cc1" shows perceived odor intensity rating of 40 or higher. MET

Hi, just wondering whether "COc1ccc(C(C)=O)cc1OC" shows perceived odor intensity rating of 40 or higher. NOT MET

Hi, just wondering whether "CCc1nccnc1C(C)=O" shows perceived odor intensity rating of 40 or higher. MET

* * *

System: Homo sapiens (human subject panel, olfactory perception)
PROCEDURE_TEXT: perceived odor intensity rating (rating 0-100); higher = stronger perceived smell
RECORDED_CONDITIONS: odor dilution in paraffin oil: 1/1,000
molecules and their reported perceived odor intensity rating
When you answer, write just the number.

Sample answers from the record:
CCCCCO [pentanol] : 68.4
COC(=O)c1ccccc1O [methyl salicylate] : 71.9
CC1CCC(=O)CC1 [4-Methylcyclohexanone] : 60.9
CC(=O)c1cccnc1 [3-Acetylpyridine] : 76.2
O=C(O)CC(O)(CC(=O)O)C(=O)O [Citric acid] : 14.7
CCCCCOC(=O)CCCCC [Amyl hexanoate] : 28.8
CC12CCC(CC1=O)C2(C)C [D-Camphor] : 63.8
Cc1ccc(C(C)C)c(O)c1 [thymol] : 71.1
CC(=O)OC/C=C(/C)CCC=C(C)C [Neryl acetate] : 14.7
CCCCC/C=C\C/C=C\CCCCCCCC(=O)O [Linoleic acid (replicate)] : 66.6

Given the entry CCCCCCC(=O)OCC [Ethyl heptanoate] , report its measured perceived odor intensity rating. 69.1

Given the entry O=C1CCSC1 [4,5-Dihydro-3(2H)-thiophenone] , report its measured perceived odor intensity rating. 85.8

* * *

molecules and their reported perceived odor intensity rating
System: Homo sapiens (human subject panel, olfactory perception)
PROCEDURE_TEXT: perceived odor intensity rating (rating 0-100); higher = stronger perceived smell
RECORDED_CONDITIONS: odor dilution in paraffin oil: 1/1,000

COc1ccccc1OC(=O)Cc1ccccc1 [Guaiacyl phenylacetate] : 60.8
C=CCOC(=O)c1ccco1 [Allyl 2-furoate] : 60.6

Shift focus to the following entry.
Given the entry c1ccc(SSc2ccccc2)cc1 [Phenyl disulfide] , report its measured perceived odor intensity rating. 61.2

* * *

compounds and their reported perceived odor intensity rating
Tested on: Homo sapiens (human subject panel, olfactory perception)
PROCEDURE_TEXT: perceived odor intensity rating (rating 0-100); higher = stronger perceived smell
RECORDED_CONDITIONS: odor dilution in paraffin oil: 1/1,000
When you answer, write just the number.

COc1cc(C)ccc1C(C)C : 45.5
CCc1nc(C)cs1 : 87

Given the entry "COc1ccc2ccc(=O)oc2c1" , report its measured perceived odor intensity rating. 42.3

Given the entry "COc1nccnc1CC(C)C" , report its measured perceived odor intensity rating. 80.6

Given the entry CCCCCC/C=C/C(=O)OC [Methyl trans-2-nonenoate] , report its measured perceived odor intensity rating. 49.1

Given the entry Nc1ccccc1C(=O)OCCc1ccccc1 [Phenethyl anthranilate] , report its measured perceived odor intensity rating. 15.1

Given the entry "CC(=O)C(C)=O" , report its measured perceived odor intensity rating. 81.7

Given the entry "COc1ccc(C=O)cc1OC" , report its measured perceived odor intensity rating. 35.2

Given the entry CCCCCCCC(=O)OCCCCC [N-Amyl octanoate] , report its measured perceived odor intensity rating. 37.1

Given the entry "CCCC(=O)OCC(COC(=O)CCC)OC(=O)CCC" , report its measured perceived odor intensity rating. 68.8

Given the entry CCCCCCCCC(=O)OC [Methyl nonanoate] , report its measured perceived odor intensity rating. 57

Given the entry "CCCCCCCCCCO" , report its measured perceived odor intensity rating. 66

Given the entry CCCCCCOC(=O)CCCCC [Hexyl hexanoate] , report its measured perceived odor intensity rating. 34.4
